assay: qHTS assay to identify small molecule antagonists of the farnesoid-X-receptor (FXR) signaling pathway - cell viability counter screen (AID 743221); conditions: FXR-bla HEK293T viability, CellTiter-Glo luminescence, 16 h; series mostly up to 62.6 µM; note: nearly all actives have a fitted effect of over 50% in size
Results filed as inconclusive are left out. Calls of active or inactive are those of the source. Calls come from the whole dose curve; as a rule, active = well fitted cell-killing curve with a large enough effect in the repeat runs (not every such curve was filed as active); inconclusive = weak or mixed curves, or effect the other way; inactive = no such curve, though single readings can be large or run the other way.
Tick one outcome: y (active), n (inactive)

Oc1ccc(Cl)cc1Cc1cc(Cl)ccc1O | n

Kindly review the next compound as well.
[ask] What call does the record list for O=C(O)Cn1cnnn1 ?
[reply] n

====

target: Progesterone receptor (Homo sapiens); experiment: qHTS assay to identify small molecule antagonists of the progesterone receptor (PR) signaling pathway (AID 1346795); settings: PR-UAS-bla HEK293T, beta-lactamase FRET ratio, 16 h; series mostly up to 92.4 µM
Inconclusive results are not listed. Activity calls are given as the source filed them. Calls follow the shape of the dose curve; as a rule, active = well fitted inhibition curve with a large enough effect in the signal ratio in the repeat runs (not every such curve was filed as active); inconclusive = weak or mixed curves; inactive = flat fitted curve, though single readings scatter; the % refers to the signal ratio.
Tick one outcome: active, inactive

Examples with answers:
CC(N)=O | inactive
CC(=O)CC(=O)Nc1ccc2[nH]c(=O)[nH]c2c1 | inactive
CCCCN(CCO)CCCC | inactive
COC(c1ccccc1)(c1ccccc1)[C@H](Oc1nc(C)cc(C)n1)C(=O)O | inactive
COc1nc(C)nc(Cl)c1NC1=NCCN1 | inactive
O=C(Oc1ccccc1)c1ccccc1O | inactive

[ask] What call does the record list for CC[C@H]1CN2CCc3cc(OC)c(OC)cc3[C@@H]2C[C@@H]1C[C@H]1NCCc2cc(OC)c(OC)cc21 ?
[reply] active

[ask] What call does the record list for CCCN[C@H]1CCc2nc(N)sc2C1 ?
[reply] inactive

[ask] What call does the record list for CC(C(O)c1ccc(O)cc1)N1CCC(Cc2ccccc2)CC1 (centres undefined) ?
[reply] inactive

[ask] What call does the record list for O ?
[reply] inactive

[ask] What call does the record list for Nc1ccc(O)cc1 ?
[reply] inactive

[ask] What call does the record list for NC12CC3CC(CC(C3)C1)C2 ?
[reply] inactive

[ask] What call does the record list for C[N+]1([O-])CCOCC1 ?
[reply] inactive

[ask] What call does the record list for C=C(C)C1CC=C(C)C(OC(C)=O)C1 (centres undefined) ?
[reply] inactive

====

Assay: qHTS assay to identify small molecule agonists of the estrogen receptor alpha (ER-alpha) signaling pathway in the presence of an antagonist - cell viability counter screen (AID 1259386);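 note: cells exposed to compounds for 22 h at 37 °C before the viability read; nearly all actives have a fitted effect of over 30% in size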
Details: VM7Luc4E2 viability, CellTiter-Fluor fluorescence, 22 h; series mostly up to 92.4 µM
Excerpt: National Center for Advancing Translational Sciences [NCATS] NIH Chemical Genomics Center [NCGC] U.S. Environmental Protection Agency [EPA] National Institutes of Environmental Health Sciences [NIEHS] National Toxicology Program [NTP] U.S. Food and Drug Administration [FDA] Estrogen receptor (ER), a member of nuclear hormone receptor plays an important role in development, metabolic homeostasis and reproduction. […]
Records with an inconclusive call do not appear. Active and inactive are the calls of the source. The call rests on the fitted dose curve; in most records, active means well fitted cell-killing curve with a large enough effect in the repeat runs; inconclusive means weak or mixed curves, or effect the other way; inactive means no such curve, though single readings can be large or run the other way.
property: outcome

COc1ccc(COC(C)=O)cc1 | inactive
COC(=O)c1cccc(C(=O)OC)c1 | inactive
CCN1CCCC1CNC(=O)c1cc(S(=O)(=O)CC)c(N)cc1OC (stereo unspecified) | inactive
O=C(O)c1cc(Cl)cc(Cl)c1 | inactive
CC(C)(C)c1ccc(O)c(C(C)(C)C)c1 | inactive

Then this compound:
Noted for Cc1cc(C(C)(C)C)c(O)c(C(C)(C)C)c1 : its outcome reads inactive
